- TESTED SYSTEM: T1, full-length beta-Catenin (Uniprot ID P35222) (Homo sapiens (Human), UniProt P35222 1-781)
- T1 construct: also called bCat; B-Catenin
- T1 sequence: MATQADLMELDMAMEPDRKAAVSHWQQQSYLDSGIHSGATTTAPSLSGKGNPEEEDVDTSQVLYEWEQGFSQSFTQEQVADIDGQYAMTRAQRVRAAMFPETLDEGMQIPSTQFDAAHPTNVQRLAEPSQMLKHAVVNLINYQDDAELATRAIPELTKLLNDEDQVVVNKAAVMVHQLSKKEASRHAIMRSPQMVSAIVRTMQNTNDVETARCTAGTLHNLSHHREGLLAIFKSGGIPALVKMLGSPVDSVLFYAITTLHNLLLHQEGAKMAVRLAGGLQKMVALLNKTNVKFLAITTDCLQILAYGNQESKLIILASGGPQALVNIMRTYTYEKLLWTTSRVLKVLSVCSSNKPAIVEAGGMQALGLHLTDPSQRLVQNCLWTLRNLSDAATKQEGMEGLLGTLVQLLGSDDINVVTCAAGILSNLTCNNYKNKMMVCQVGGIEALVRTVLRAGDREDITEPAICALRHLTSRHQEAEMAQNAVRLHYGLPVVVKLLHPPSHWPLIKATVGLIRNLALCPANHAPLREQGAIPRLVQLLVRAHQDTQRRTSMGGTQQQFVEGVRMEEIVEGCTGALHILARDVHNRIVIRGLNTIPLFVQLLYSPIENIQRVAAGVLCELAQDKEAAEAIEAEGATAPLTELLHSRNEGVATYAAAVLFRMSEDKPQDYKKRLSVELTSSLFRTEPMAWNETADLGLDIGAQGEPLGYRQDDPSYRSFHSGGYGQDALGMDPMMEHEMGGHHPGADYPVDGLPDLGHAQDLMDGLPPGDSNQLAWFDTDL
- EXPERIMENT: fluorescence polarization competition; 10 nM full-length beta-catenin, competitor 10 nM 5FAM-TCF4(10-53)
Starred links: 1 amine or outer side, 2 acyl side, 3 side chain; linkers in the order of their positions; H or OH if unused. Positions of bridges follow the written chain, without caps; N, C: chain ends. Non-standard residues stand in square brackets, D forms with d. Primed or numbered codes have the meaning given here. B5(4) = 2,2-bis(4-pentenyl)glycine = 2-amino-2-(pent-4-en-1-yl)hept-6-enoic acid (stitching residue), C=CCCCC(CCCC=C)(N[*:1])C(=O)[*:2]; Phe(3-CF3) = N[C@@H](Cc1cccc(C(F)(F)F)c1)C(=O)O; Phe(3-F) = N[C@@H](Cc1cccc(F)c1)C(=O)O; Bta = N[C@@H](Cc1csc2ccccc12)C(=O)O; αAllylPro = C=CC[C@@]1(C(=O)O)CCCN1; S8 = C=CCCCCCC[C@](C)(N)C(=O)O
READOUT NAME: EC50 (nM)
One number for each entry, in nM.

BINDER	QUANTITY UNIT	EC50
Ac-[αAllylPro]DA[B5(4)]DDAA[Phe(3-CF3)]A[S8]F[Bta]Q-NH2 (staple 1-4, 4-11; not fully specified; printed as Ac-PL3-Asp-Ala-B5-Asp-Asp-Ala-Ala-3F3MeF-Ala-S8-Phe-BztA-Gln-NH2, Stapled peptide) [I-375]	nM	3010

Now, please, on to the next binder.
Problem: Record request: EC50 value, item Ac-[αAllylPro]DA[B5(4)]DEAAFA[S8][Phe(3-F)][Bta]Q-NH2 (staple 1-4, 4-11, Stapled peptide composition (olefin metathesis)) [I-372]
Solution: 2090
